assay-remarks: gradient 5% acetonitrile 3 min, to 50% in 2 min, to 85% in 15 min, held 3 min, 100 µL/min
condition: column: Zorbax Extend-C18 2.1 x 50 mm; eluents: water / acetonitrile, 0.1% formic acid
measurement-type: RP-LC retention time (s)

P: CNC(=O)c1sc2nc(-c3cccc(OC)c3)c(NCCOC)n2c1C
Q: CCn1c(=O)c(C)nc2cc(-c3noc(-c4cccc(Cl)c4)n3)ccc21
q: Compare P and Q and name the one whose reported RP-LC retention time is smaller. Answer = label.
a: P
(P: 696 s, Q: 1220 s)

I: CC(=O)N1CCc2cc(-c3ccc(C(=O)NCCN4CCCCC4)cc3)ccc21
II: Cc1nn(-c2ccccc2)c(C)c1CCc1nnc2sc(-c3ccc(N(C)C)cc3)nn12
q: Compare I and II and name the one whose reported RP-LC retention time is smaller. Answer = label.
a: I

---

assay-remarks: gradient 5% acetonitrile 3 min, to 50% in 2 min, to 85% in 15 min, held 3 min, 100 µL/min
condition: column: Zorbax Extend-C18 2.1 x 50 mm; eluents: water / acetonitrile, 0.1% formic acid
measurement-type: RP-LC retention time (s)

Example cases with answers are listed next.
| compound | reported-value |
| --- | --- |
| O=C(NCCc1cccs1)c1ccc2nc(Cc3ccccc3)oc2c1 | 949 |
| CCOC(=O)Cc1ccc(NC(=O)NCCc2c(C)nn(C)c2C)cc1 | 644 |
| Cc1nn2c(CNS(=O)(=O)c3ccc(F)cc3)c(-c3ccccc3)nc2s1 | 859 |
| CC(C)(C)c1cc(C(=O)NC2CCCC2)nc2ccnn12 | 1150 |
| COc1ccc(N2CC(c3nc(-c4ccc(C(F)(F)F)cc4)no3)CC2=O)cc1 (centres undefined) | 1040 |

a: COc1cccc(-c2nnc(Cc3nc(-c4cccc(F)c4)no3)o2)c1
b: CN(C)C(=O)c1n[nH]c2c1CN(C(=O)c1ccc(C(F)(F)F)cc1)CC2
q: Compare a and b and name the one whose reported RP-LC retention time is smaller. Answer = label.
a: b

A: Cc1ccc(C)c(Sc2ccc(N3CCC(C(=O)NCCC4=CCCCC4)CC3)nn2)c1
B: CCOC(=O)c1c(S(=O)(=O)NCCN2CCc3ccccc3C2)c(C)n(C)c1C
q: When A and B are compared, which has the higher number for RP-LC retention time? Answer = label.
a: A
(A: 1010 s, B: 675 s)

---

assay-remarks: gradient 5% acetonitrile 3 min, to 50% in 2 min, to 85% in 15 min, held 3 min, 100 µL/min
condition: column: Zorbax Extend-C18 2.1 x 50 mm; eluents: water / acetonitrile, 0.1% formic acid
measurement-type: RP-LC retention time (s)

Example cases with answers are listed next.
| compound | unit-symbol | reported-value |
| --- | --- | --- |
| O=C([C@@H]1C[C@H](F)CN1C(=O)c1cccc(F)c1)N1CCCCC1 | s | 693 |
| CCCS(=O)(=O)NCC1CC(=O)N(c2ccc(F)cc2)C1 (centres undefined) | s | 669 |

P: Cc1ccc(C)c(NC(=O)Cn2nc3c(Oc4ccccc4C)nccn3c2=O)c1
Q: Cc1cc(N(C)C)n2nc(CN3CCN(c4ccccc4C)CC3)nc2n1
q: Compare P and Q and name the one whose reported RP-LC retention time is smaller. Answer = label.
a: Q
(Q: 633 s, P: 908 s)

1: CCCN(CC1CCOC1)C(=O)Nc1ccc(OC)c(F)c1 (centres undefined)
2: Clc1cccc(-c2nnc(-c3nc(NC4CCCC4)c4ccccc4n3)o2)c1
q: Compare 1 and 2 and name the one whose reported RP-LC retention time is smaller. Answer = label.
a: 1
(1: 777 s, 2: 1170 s)

A: CC(NC(=O)C1CCCN(C(=O)c2cc3sccc3n2C)C1)c1ccccc1 (centres undefined)
B: O=S(=O)(Cc1ccccc1Cl)N(Cc1ccsc1)C1CC1
q: When A and B are compared, which has the higher number for RP-LC retention time? Answer = label.
a: B

---

assay-remarks: gradient 5% acetonitrile 3 min, to 50% in 2 min, to 85% in 15 min, held 3 min, 100 µL/min
condition: column: Zorbax Extend-C18 2.1 x 50 mm; eluents: water / acetonitrile, 0.1% formic acid
measurement-type: RP-LC retention time (s)

Example cases with answers are listed next.
| compound | reported-value |
| --- | --- |
| CC1CCN(C(=O)CN2C(=O)COc3ccc(C(=O)N4CCCC4)cc32)CC1 | 698 |
| CCN1C(=O)c2cccc3c(NC(=O)c4c(F)cccc4F)ccc1c23 | 739 |
| CCC(C)NC(=O)N1CCCN(C2=NS(=O)(=O)C(c3ccc(C)c(C)c3)=C2C)CC1 (centres undefined) | 843 |
| CC1(C(=O)N2CCN(c3ccccn3)CC2)CCCCC(=O)N1 (centres undefined) | 552 |
| O=C(COc1ccccc1F)Nc1ccc2c(c1)N(C(=O)c1ccco1)CCC2 | 834 |

P: CCCNc1nc(C(=O)OCC)nc2ccccc12
Q: CCCOc1ccc(-c2noc(Cc3nc(-c4ccc(OC)c(OC)c4)cs3)n2)cc1
q: Compare P and Q and name the one whose reported RP-LC retention time is smaller. Answer = label.
a: P

a: Cc1ccccc1Cn1c(CN2CCC(C(=O)NCCc3ccco3)CC2)cc2ccccc21
b: Cc1nc2cc(-c3noc(-c4ccc(C)c(C)c4)n3)ccc2o1
q: Compare a and b and name the one whose reported RP-LC retention time is smaller. Answer = label.
a: a
(a: 805 s, b: 1280 s)

P: C=Cc1ccc(CN2C(=O)N(c3cccc(F)c3)c3ncccc3S2(=O)=O)cc1
Q: O=C(NCc1cccnc1)c1ccc(-c2ccc(N3CCSCC3)nc2)cc1
q: Compare P and Q and name the one whose reported RP-LC retention time is smaller. Answer = label.
a: Q

P: C=CCNC(=O)N1CCCN(C2=NS(=O)(=O)C(c3ccc(C)cc3)=C2C)CC1
Q: O=C(C1CCN(S(=O)(=O)c2ccc(-c3noc(C4CC4)n3)cc2)CC1)N1CCc2ccccc2C1
q: Compare P and Q and name the one whose reported RP-LC retention time is smaller. Answer = label.
a: P
(P: 732 s, Q: 1050 s)

---

assay-remarks: gradient 5% acetonitrile 3 min, to 50% in 2 min, to 85% in 15 min, held 3 min, 100 µL/min
condition: column: Zorbax Extend-C18 2.1 x 50 mm; eluents: water / acetonitrile, 0.1% formic acid
measurement-type: RP-LC retention time (s)

| compound | reported-value |
| --- | --- |
| CCOc1ccccc1NC(=O)c1cnc2c(c1)c(=O)n(C)c(=O)n2-c1ccccc1 | 961 |
| COc1ccc(CN2CC3(CCN(S(=O)(=O)C(C)C)CC3)C2=O)cc1 | 787 |
| Cc1cc(NC(=O)Cn2c(=O)cc(-c3nc(C(C)C)no3)c3ccccc32)ccc1F | 959 |

I: CN(C)S(=O)(=O)c1ccc2c(c1)N(CC(=O)Nc1cccc(F)c1)C(=O)C1CCCCN21 (stereo not given)
II: COCCNc1nc(Nc2ccc(C)c(C)c2)c2nccnc2n1
q: When I and II are compared, which has the higher number for RP-LC retention time? Answer = label.
a: I
(I: 928 s, II: 597 s)

---

assay-remarks: gradient 5% acetonitrile 3 min, to 50% in 2 min, to 85% in 15 min, held 3 min, 100 µL/min
condition: column: Zorbax Extend-C18 2.1 x 50 mm; eluents: water / acetonitrile, 0.1% formic acid
measurement-type: RP-LC retention time (s)

Example cases with answers are listed next.
| compound | RP-LC retention time / s |
| --- | --- |
| Clc1ccc(-c2nc3cnccn3c2Nc2ccc3c(c2)OCCO3)cc1 | 891 |
| O=C(Nc1cnc(-c2ccc(C(F)(F)F)cc2)nc1)C1CCOC1 (centres undefined) | 888 |
| CC1CCCN(CCCNC(=O)CCC(=O)N2CCc3c(c(C(=O)N4CCCCC4)nn3C)C2)C1 (centres undefined) | 594 |
| Cc1noc(C)c1Cc1ccc(C(=O)N2CCC3(CCC3O)CC2)o1 (centres undefined) | 698 |
| Cc1noc(-c2ccc(OC3CN(C(=O)c4cccc5[nH]ccc45)C3)cc2)n1 | 597 |

P: COc1nn(C)cc1C(=O)NCC(=O)N1CCc2ccccc2C1
Q: O=c1c2cc(-c3cccs3)nn2cnn1Cc1nc(-c2ccccc2Br)no1
q: When P and Q are compared, which has the higher number for RP-LC retention time? Answer = label.
a: Q

---

assay-remarks: gradient 5% acetonitrile 3 min, to 50% in 2 min, to 85% in 15 min, held 3 min, 100 µL/min
condition: column: Zorbax Extend-C18 2.1 x 50 mm; eluents: water / acetonitrile, 0.1% formic acid
measurement-type: RP-LC retention time (s)

| compound | unit-symbol | RP-LC retention time |
| --- | --- | --- |
| Cc1cnc(C(=O)N2CCCCCNC(=O)[C@@H]3CCC[C@@H]32)cn1 | s | 623 |
| COc1ccc(N2CC(c3noc(-c4ccc(OC)cc4OC)n3)CC2=O)cc1 (stereo not given) | s | 861 |
| CC(C)CN1CCN(C(=O)c2cn3ccnc(-c4ccccc4)c3n2)CC1 | s | 606 |
| COc1cccc(-c2n[nH]c3c2C(c2ccc(O)c(OC)c2)NC3=O)c1 (stereo not given) | s | 634 |
| CCCN1CCN(C(=O)C2CC(=O)N(c3ccc4c(c3)CCN4C(=O)CC)C2)CC1 (stereo not given) | s | 566 |
| CCc1ccc(-c2nc(-c3ccc4c(c3)ncn4CCN3CCOCC3)no2)cc1 | s | 685 |
| CC1CN(C(=O)c2ccc(C#N)cc2)c2ccccc2O1 (stereo not given) | s | 914 |
| Cc1cccc(-c2nc(NCc3ccncc3)ncc2C(=O)O)c1 | s | 587 |
| CCc1noc(NC(C)=O)c1-c1ccc(C)c(S(=O)(=O)NCc2ccccc2)c1 | s | 836 |
| CC(C)(CO)NC(=O)Cc1ccc(NC(=O)c2ccc(Cl)s2)cc1 | s | 704 |
